The origin of these recorded values is paper PMC9482650.

- SYSTEM NAME: MAGI2_3, Q86UL8
- Sequence (Q86UL8 600-682): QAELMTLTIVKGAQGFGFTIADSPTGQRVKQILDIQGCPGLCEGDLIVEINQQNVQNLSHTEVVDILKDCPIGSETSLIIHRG
- EXPERIMENT: holdup assay
- Set-up: key: below the threshold = too weak to quantify, mostly under pKd 3.1 to 4
- CONDITION SET: plain residues with an end cap or a label only (N-terminal biotin on a linker: ado-ado)
PARAMETER MEASURED: pKd

| BINDER | pKd |
| --- | --- |
| EDLEDEWEVI [TECPR2, O15040] | below the threshold |
| GTGYDRKDYV [CLDN3, O15551] | 3.48 |
| TRKRSGEAAV [PFKM, P08237] | below the threshold |
| QSYPSKHDYV [CLDN18, P56856] | 3.62 |
| SFISKKEWYV [NECTIN1, Q15223] | below the threshold |
| AEASVACSLC [PTGIR, P43119] | below the threshold |
| TNSRHGETTV [FZD2, Q14332] | 3.53 |

Noted for QKAPTKEFYA [SDC2, P34741] : its pKd reads below the threshold
